Test system: Staphylococcus aureus
protocolSummary: In vitro minimum inhibitory concentration against Staphylococcus aureus UBMS 90-1 (tet M ribosomal protection).
Type: functional
measureName: MIC (mg/L)

{"molecule": "CN(C)[C@@H]1C(O)=C(C(N)=O)C(=O)[C@@]2(O)C(O)=C3C(=O)c4c(O)cccc4[C@@](C)(O)[C@H]3C[C@@H]12", "censoringQualifier": ">", "measuredValue": 32}
{"molecule": "CCN(CC)c1cc(NC(=O)CN(C)C)c(O)c2c1CC1CC3[C@H](N(C)C)C(=O)C(C(N)=O)=C(O)[C@@]3(O)C(=O)C1=C2O.Cl (some centres undefined)", "censoringQualifier": "=", "measuredValue": 0.5}
{"molecule": "CN(C)c1ccc(O)c2c1C[C@H]1C[C@H]3[C@H](N(C)C)C(O)=C(C(N)=O)C(=O)[C@@]3(O)C(O)=C1C2=O", "censoringQualifier": "=", "measuredValue": 4}
{"molecule": "CN(C)CC(=O)Nc1cc(N(C)C)c2c(c1O)C(=O)C1=C(O)[C@]3(O)C(O)=C(C(N)=O)C(=O)[C@@H](N(C)C)C3CC1C2.Cl (some centres undefined)", "censoringQualifier": "=", "measuredValue": 0.25}

----------
Tested on: Staphylococcus aureus
protocolSummary: In vitro minimum inhibitory concentration against Staphylococcus aureus smith (sensitive).
Type: functional

{"compound": "CC(=O)Nc1cc(I)c2c(c1O)C(O)=C1C(=O)[C@]3(O)C(O)=C(C(N)=O)C(=O)[C@@H](N(C)C)C3CC1C2.O=S(=O)(O)O (some centres not stated)", "unitSpec": "µg/mL", "censoringQualifier": "=", "MIC": 0.12}
{"compound": "CN(C)CC(=O)Nc1cc(I)c2c(c1O)C(=O)C1=C(O)[C@]3(O)C(O)=C(C(N)=O)C(=O)[C@@H](N(C)C)C3CC1C2.Cl (some centres not stated)", "unitSpec": "µg/mL", "censoringQualifier": "=", "MIC": 0.25}
{"compound": "CN(C)[C@@H]1C(=O)C(C(N)=O)=C(O)[C@@]2(O)C(=O)C3=C(O)c4c(ccc(NC=O)c4O)CC3CC12.O=S(=O)(O)O (some centres not stated)", "unitSpec": "µg/mL", "censoringQualifier": "=", "MIC": 0.03}
{"compound": "CN(C)[C@@H]1C(O)=C(C(N)=O)C(=O)[C@@]2(O)C(O)=C3C(=O)c4c(O)cccc4[C@@](C)(O)[C@H]3C[C@@H]12", "unitSpec": "µg/mL", "censoringQualifier": "=", "MIC": 0.25}
{"compound": "CN(C)[C@@H]1C(=O)C(C(N)=O)=C(O)[C@@]2(O)C(=O)C3=C(O)c4c(O)c(N)cc(I)c4CC3CC12.O=S(=O)(O)O (some centres not stated)", "unitSpec": "µg/mL", "censoringQualifier": "<", "MIC": 0.015}
{"compound": "CN(C)c1ccc(O)c2c1C[C@H]1C[C@H]3[C@H](N(C)C)C(O)=C(C(N)=O)C(=O)[C@@]3(O)C(O)=C1C2=O", "unitSpec": "µg/mL", "censoringQualifier": "=", "MIC": 0.12}
{"compound": "CN(C)[C@@H]1C(=O)C(C(N)=O)=C(O)[C@@]2(O)C(=O)C3=C(O)c4c(O)c(NC=O)cc(I)c4CC3CC12.O=S(=O)(O)O (some centres not stated)", "unitSpec": "µg/mL", "censoringQualifier": "=", "MIC": 0.03}
